- target.of.assay: H1N1 hemagglutinin (Cat No.: Z03181, GenScript), full-length recombinant HA (His-Tag) (influenza A virus H1N1 (strain not stated))
- method.description: SPR
value.type: pKd
For clarity, pKd is expressed as the negative log10 of concentration in mol/L.

Req: I have this binder here, Ac-SAHS-NH2 [peptide 4 (Ac-SAHS-NH2)] , and I need its recorded pKd.
Resp: 8.45
